biological target: T1, recombinant human TGF-β RII/Fc chimera protein (human, UniProt P37173 24-159); experiment: SPR Biacore T200, receptor-Fc captured by anti-human IgG, dAb as analyte, 1:1 model
T1 construct: range 24-159; Made in HEK-F cells; Biotinylated where it was put on SA chips, otherwise captured by anti-human IgG; also called human TGFbRII/Fc; hRII-Fc; not shown: Fc region of human IgG1
T1 sequence (P37173 24-159 limits assumed, stated change not applied): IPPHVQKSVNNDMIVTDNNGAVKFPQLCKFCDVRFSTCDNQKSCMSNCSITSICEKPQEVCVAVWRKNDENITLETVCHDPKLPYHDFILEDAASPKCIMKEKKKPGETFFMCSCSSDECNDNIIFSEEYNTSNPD
Listed here are binders together with their documented pKd.
In simple prose, pKd is minus the logarithm base ten of a concentration in moles per litre.

Worked examples, 5 binders total:
INSERT INTO assay_data (binder, readout_number) VALUES
  ('DOM23h-439-44 (DOM23h-439-25 + C-terminal Alanine + 61N64R) (VHH, human VH dAb) VHH: EVQLLESGGGLVQPGGSLRLSCAASGFTFGTEQMWWVRQAPGKGLEFVSRIDSPGGRTYYANSVRGRFTISRDNSKNTLYLQMNSLRAEDTAVYYCAKRRPTGVSGTFYDYWGQGTLVTVSS', 11.54),
  ('DOM23h-439-40 (DOM23h-439-25 + C-terminal Alanine) (VHH, human VH dAb) VHH: EVQLLESGGGLVQPGGSLRLSCAASGFTFGTEQMWWVRQAPGKGLEFVSRIDSPGGRTYYADSVKGRFTISRDNSKNTLYLQMNSLRAEDTAVYYCAKRRPTGVSGTFYDYWGQGTLVTVSS', 9.98),
  ('DOM23h-439-43 (DOM23h-439-25 + C-terminal Alanine + 64R) (VHH, human VH dAb) VHH: EVQLLESGGGLVQPGGSLRLSCAASGFTFGTEQMWWVRQAPGKGLEFVSRIDSPGGRTYYADSVRGRFTISRDNSKNTLYLQMNSLRAEDTAVYYCAKRRPTGVSGTFYDYWGQGTLVTVSS', 10.37),
  ('DOM23h-439-35 (VHH, expressed from pC10) VHH: EVQLLESGGGLVQPGGSLRLSCAASGFTFGTDQMWWVRQAPGKGLEFVSRIDSPGGRTYYANSVKGRFTISRDNSKNTLYLQMNSLRAEDTAVYYCAKRQPAGVSGKYVDYWGQGTLVTVSS', 11.01),
  ('DOM23h-439-25 (VHH, expressed from pC10) VHH: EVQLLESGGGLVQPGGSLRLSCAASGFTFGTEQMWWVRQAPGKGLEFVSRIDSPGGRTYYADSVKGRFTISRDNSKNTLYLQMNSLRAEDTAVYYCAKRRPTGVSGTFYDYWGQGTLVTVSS', 10.09);

Challenge: Please supply the value of reported pKd for the item DOM23h-271-131 (DOM23h-271-123 + C-terminal Alanine + 61N) (VHH, human VH dAb) VHH: EVQLLESGGGLVQPGGSLRLSCAASGSTFTEYRMWWVRQAPGKGLEWVSAIEPIGHRTYYANSVKGRFTISRDNSKNTLYLQMNSLRAEDTAVYYCAKQAPGEKWARRWDLDYWGQGTLVTVSS
Response given: 10.66

Challenge: Please supply the value of reported pKd for the item DOM23h-271-132 (DOM23h-271-123 + C-terminal Alanine + 64R) (VHH, human VH dAb) VHH: EVQLLESGGGLVQPGGSLRLSCAASGSTFTEYRMWWVRQAPGKGLEWVSAIEPIGHRTYYADSVRGRFTISRDNSKNTLYLQMNSLRAEDTAVYYCAKQAPGEKWARRWDLDYWGQGTLVTVSS
Response given: 10.74

Challenge: Please supply the value of reported pKd for the item DOM23h-271-130 (DOM23h-271-123 + C-terminal Alanine) (VHH, human VH dAb) VHH: EVQLLESGGGLVQPGGSLRLSCAASGSTFTEYRMWWVRQAPGKGLEWVSAIEPIGHRTYYADSVKGRFTISRDNSKNTLYLQMNSLRAEDTAVYYCAKQAPGEKWARRWDLDYWGQGTLVTVSS
Response given: 9.91

Challenge: Please supply the value of reported pKd for the item DOM23h-271-133 (DOM23h-271-123 + C-terminal Alanine + 61N64R) (VHH, human VH dAb) VHH: EVQLLESGGGLVQPGGSLRLSCAASGSTFTEYRMWWVRQAPGKGLEWVSAIEPIGHRTYYANSVRGRFTISRDNSKNTLYLQMNSLRAEDTAVYYCAKQAPGEKWARRWDLDYWGQGTLVTVSS
Response given: 11.04
